Numbers sourced from PubChem BioAssay (NCI).

Test system: SNB-19 CNS
Assay: NCI-60 one-dose screen, 48 h (100 = growth as untreated, 0 = no growth, -100 = all killed)
Conditions: 10 µM unless noted
The panel holds about 83,000 compounds, 20% with a hit somewhere; the sample as a whole holds those more often.
Assign condition met whenever growth does not fall below 90%; assign condition not met whenever it does.

Worked examples, 4 compounds total:
{"structure_notation": "COc1ccc(-c2nc(SCCC(C)C)nc(N/N=C(/C)c3ccc(N)cc3)c2C#N)cc1", "group": "condition not met"}
{"structure_notation": "CC(=O)O[C@H]1CC[C@@]2(C)C(=CC[C@@H]3[C@@H]2CC[C@]2(C)C(Cl)=C(c4nc5ccc(Cl)cn5c4NC(C)(C)C)C[C@@H]32)C1", "group": "condition not met"}
{"structure_notation": "Cc1c(-c2cnc3ccc(Cl)cc3c2C(=O)O)nnn1-c1ccc(Cl)cc1", "group": "condition met"}
{"structure_notation": "COc1cc2c(cc1OC)CC[N+](CCC[N+](C)(C)C)=C2", "group": "condition met"}

Attention now shifts to the item below.
Input: Reported growth at or above 90%? CN1CCN(Cc2ccc(NC(=O)c3cncc(C#Cc4cnc(N)c5ncccc45)c3)cc2Cl)CC1
Output: condition met

====

System: SNB-19 CNS
Experiment: NCI-60 one-dose screen, 48 h (100 = growth as untreated, 0 = no growth, -100 = all killed)
Settings: 10 µM unless noted
About 83,000 compounds went through this panel and 20% of them were active in at least one assay; those are over-represented in the sample as a whole.
assay_metric: growth (%)
The figure you give is taken to be in %; do not add the unit.

Some compounds with recorded growth:
{"compound": "COc1cc(C)cc(-c2c(-c3cc(N4CC(O)C4)nc(-c4cccnc4)n3)cnn2C)c1", "assay_metric": "growth", "recorded_result": 91.4}
{"compound": "Cc1ccc(Nc2oc(-c3ccccc3)nc2[P+](c2ccccc2)(c2ccccc2)c2ccccc2)cc1", "assay_metric": "growth", "recorded_result": 0.303}
{"compound": "Cc1ccc(C23CCC(=O)N2CCc2cncn23)cc1 (stereo not drawn)", "assay_metric": "growth", "recorded_result": 97.7}
{"compound": "O=C(O)c1nn(-c2ccc(Cl)cc2)nc1N1CCCC1", "assay_metric": "growth", "recorded_result": 103}
{"compound": "O=c1[nH]c(CN2CCN(c3ccccc3)CC2)nc2c(Br)cc(Br)cc12", "assay_metric": "growth", "recorded_result": 108}
{"compound": "O=C1/C(=C/c2ccc(-c3ccc(Cl)cc3)o2)SC(=S)N1CCc1ccc(O)cc1", "assay_metric": "growth", "recorded_result": 87.2}

Input: Report growth for O=C(Nc1ncc(Cc2ccc(Cl)cc2)s1)c1ccc2c(c1)OCCO2
Output: 43.4

Input: Quote growth reported for COC(=O)c1nc(-c2ccccc2)oc1S(=O)(=O)NCC(c1ccc(Cl)cc1)N1CCCCC1 (stereo not drawn) please.
Output: 81.1

Input: Report growth for Cc1ccccc1NC(=O)c1sc2nc3c(cc2c1N)CCCC3
Output: 30.9

Input: Consider the compound CCCCC1=C(Br)C(=O)c2ncccc2C1=O . State its measured growth.
Output: 97.9

Input: Let me know recorded growth for CCCC1Cc2cc(-n3nc(C)c4c3CC(C)(C)CC4=O)cc(NC3CCC(O)CC3)c2C(=O)N1 (stereo not drawn) , thanks.
Output: 50

Input: Answer with the recorded growth for the compound listed here: COc1cc2c(c(OC)c1OC)C(=O)CC(c1cccc(C(=O)Nc3ccc(Br)cc3)c1)O2 (stereo not drawn)
Output: 80.2

Input: Query growth for CC(C)n1cc(C2=C(c3cccc4ccccc34)C(=O)NC2=O)c2cc(Br)ccc21
Output: 82.6

Input: Annotate the compound N#CC1=C(N)Oc2c(ccc3ccccc23)C1c1cc2ccccc2n2nnnc12 (stereo not drawn) with its measured growth.
Output: 26.2
